B1: MTMR15 (parent)
chain: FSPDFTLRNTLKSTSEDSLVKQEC

Variants of: B1
Experiment: protein stability index of a GFP-peptide fusion (GPS, HEK-293T) (PSI 1-6); higher = more stable;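 further: lentivirally expressed fusions sorted by FACS into six bins by GFP to DsRed ratio, PSI derived from sequencing read proportions per bin multiplied by bin number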
Conditions: c terminus: a fixed tail appended
So I've got a bunch of variants here, and I need their protein stability index values.
Answer using only a numeral; do not append any unit.

Please give measured protein stability index of the following entry: S18E
2.02

Identify protein stability index associated with the variant D4H
1.95

Report protein stability index, nothing else, for this variant: D4I
2.05

Could you please provide reported protein stability index for E23P ? Thanks!
2.04

Please report protein stability index for the following variant: P3W
1.97

For the variant F5G , report protein stability index.
1.99

Specify measured protein stability index for S13V .
1.97

Look up and report measured protein stability index for this entry: L7F
2.04

Output measured protein stability index for this item: V20S
2.04

Give the reported protein stability index for this variant. C24V
2.03

# return recorded protein stability index for entry K12F
2.03

Give protein stability index for the following variant: S18P
2.05
